- target-or-system: T1, human ST2L extracellular domain with C-terminal His6 tag (human, UniProt Q01638 19-328)
- T1 construct: also called huST2L-ECD; ST2L-ECD
- T1 sequence: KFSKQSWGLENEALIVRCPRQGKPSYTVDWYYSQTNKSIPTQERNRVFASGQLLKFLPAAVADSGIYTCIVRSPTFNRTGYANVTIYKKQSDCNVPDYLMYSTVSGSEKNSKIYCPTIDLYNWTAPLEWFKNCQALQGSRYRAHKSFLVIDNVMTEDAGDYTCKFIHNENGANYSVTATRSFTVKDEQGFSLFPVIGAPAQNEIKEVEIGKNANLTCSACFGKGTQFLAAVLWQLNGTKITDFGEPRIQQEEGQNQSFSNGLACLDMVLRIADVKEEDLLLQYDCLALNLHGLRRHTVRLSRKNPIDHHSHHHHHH
- measurement-description: ProteOn SPR, mAb captured, ST2L-ECD in solution
Please go through the items and note down their kon.
Give bare numbers, in M⁻¹ s⁻¹.

INSERT INTO results (binder, reported_value) VALUES
  ('STLM202 (antibody, V domains shown, C2494 HFA mAb: VH STLH194 + VL STLL275 (L5)) VH: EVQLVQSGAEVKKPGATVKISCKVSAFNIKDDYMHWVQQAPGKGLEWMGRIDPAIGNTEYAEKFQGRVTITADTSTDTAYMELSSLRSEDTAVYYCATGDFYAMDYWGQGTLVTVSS VL: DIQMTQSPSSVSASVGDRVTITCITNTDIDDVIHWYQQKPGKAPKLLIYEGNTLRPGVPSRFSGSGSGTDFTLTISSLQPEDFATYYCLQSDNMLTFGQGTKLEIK', '2.24e+07'),
  ('STLM191 (antibody, V domains shown, C2494 HFA mAb: VH STLH195 + VL STLL276 (L12)) VH: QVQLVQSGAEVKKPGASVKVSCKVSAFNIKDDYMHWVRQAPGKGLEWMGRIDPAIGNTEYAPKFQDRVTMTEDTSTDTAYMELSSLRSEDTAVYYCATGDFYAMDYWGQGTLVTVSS VL: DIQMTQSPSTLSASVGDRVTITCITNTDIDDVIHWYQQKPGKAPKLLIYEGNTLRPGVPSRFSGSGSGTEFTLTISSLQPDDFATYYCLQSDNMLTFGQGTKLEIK', '8.46e+07'),
  ('STLM203 (antibody, V domains shown, C2494 HFA mAb: VH STLH194 + VL STLL274 (O12)) VH: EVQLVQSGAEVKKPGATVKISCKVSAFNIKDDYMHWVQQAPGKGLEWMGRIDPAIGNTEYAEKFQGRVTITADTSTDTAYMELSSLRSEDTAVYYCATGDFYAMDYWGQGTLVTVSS VL: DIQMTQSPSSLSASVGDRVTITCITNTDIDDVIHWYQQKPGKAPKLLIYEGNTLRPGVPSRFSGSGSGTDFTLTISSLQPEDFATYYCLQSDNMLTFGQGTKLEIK', '2.04e+07'),
  ('STLM197 (antibody, V domains shown, C2494 HFA mAb: VH STLH194 (IGHV1-f*01) + VL STLL280 (O12b)) VH: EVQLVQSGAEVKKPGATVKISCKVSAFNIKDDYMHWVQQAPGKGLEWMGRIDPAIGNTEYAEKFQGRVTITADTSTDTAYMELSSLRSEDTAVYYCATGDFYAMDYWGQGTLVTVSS VL: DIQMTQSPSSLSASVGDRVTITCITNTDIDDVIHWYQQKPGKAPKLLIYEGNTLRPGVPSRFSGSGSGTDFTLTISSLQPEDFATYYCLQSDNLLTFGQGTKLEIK', '1.83e+07'),
  ('STLM200 (antibody, V domains shown, C2494 HFA mAb: VH STLH194 + VL STLL277 (L8)) VH: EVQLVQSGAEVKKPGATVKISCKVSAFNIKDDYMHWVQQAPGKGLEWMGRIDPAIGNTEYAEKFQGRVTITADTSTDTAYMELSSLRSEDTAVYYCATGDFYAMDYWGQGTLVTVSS VL: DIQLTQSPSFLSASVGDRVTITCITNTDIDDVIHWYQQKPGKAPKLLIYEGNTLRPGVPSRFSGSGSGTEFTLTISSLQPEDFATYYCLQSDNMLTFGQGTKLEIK', '2.35e+07');

// below: kon requested for another binder
What measured kon goes with STLM190 (antibody, V domains shown, C2494 HFA mAb: VH STLH195 + VL STLL277 (L8)) VH: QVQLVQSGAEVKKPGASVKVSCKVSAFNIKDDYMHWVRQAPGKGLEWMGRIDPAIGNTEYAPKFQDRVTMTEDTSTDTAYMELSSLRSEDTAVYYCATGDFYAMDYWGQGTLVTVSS VL: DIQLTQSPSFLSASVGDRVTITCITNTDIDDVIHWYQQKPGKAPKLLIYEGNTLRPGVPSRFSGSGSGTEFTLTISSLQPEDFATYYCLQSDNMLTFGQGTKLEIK ?
1e+08
